tested on: PDC-3 β-lactamase (Pseudomonas aeruginosa, UniProt P24735, T105A)
protocol details: Inhibition of nitrocefin hydrolysis
observation type: IC50

Record `O=C(O)[C@H]1/C(=C/CO)O[C@@H]2CC(=O)N21` . Reported IC50: > 100 µM

Values compiled from paper PMC3319978.
